assay: binders from COS7 lysate, DM2A8 probe, primary screen, torsin A project, cell lysate, small-molecule microarray, fluorescence 635/667 (AID 1065); settings: higher = more signal, COS7 lysate expressing mutant human TOR1A
Class YES: composite z-score at least 0.4. Class NO: composite z-score below 0.4.

Observe how each entry below is paired with its result.
compound	assigned_category
CC=CC1=C(CO)C(=O)[C@@H]2O[C@@H]2C1=O	NO
C#CCCCON=C1C[C@@H](O)[C@@H](O)[C@@H]2[C@@H]3C(=O)N(C(C)(C)C)C(=O)[C@@H]3CC[C@H]12	YES
O=C(NN=C1C[C@@H](O)[C@@H](O)[C@@H]2[C@@H]3C(=O)N(C4CCCCC4)C(=O)[C@@H]3CC[C@@H]12)OCc1ccccc1	NO
CC(C)CON=C1C[C@@H](O)[C@@H](O)[C@@H]2[C@@H]3C(=O)N(C4CCCCC4)C(=O)[C@@H]3CC[C@@H]12	YES
C=CC[C@@H]1C=C[C@H](ON=C[C@@H](C)[C@H](OCc2ccccc2)C(C)C)[C@@H](CO)O1	NO
CC(C)CON=C1C[C@@H](O)[C@@H](O)[C@@H]2[C@@H]3C(=O)N(C(C)(C)C)C(=O)[C@@H]3CC[C@H]12	NO

Exam item: Would you say C=C(C)C(=O)OCC1CN2[C@@H](CC[C@@H](C)[C@@H]2c2ccc(Br)cc2)C(=O)O1 (stereo not given in full) shows composite z-score at minimum 0.4?
Marked response: NO

Exam item: Same thing, different compound: CCOC(=O)[C@H](CC(C)C)NC(=O)CCC1CC(OC(=O)NCc2cccc3ccccc23)CC2(CCCC(COC(=O)NCCCN3CCCC3=O)O2)O1 (stereo not given in full)
Marked response: NO

Exam item: Also, `CO[C@H]1COC(=O)[C@@H]2CCCN2C(=O)CC=C[C@@H](C)[C@H](OC)COC(=O)[C@@H](OCc2ccccc2)C=C[C@@H]1C` please.
Marked response: YES

Exam item: Record: `CC(C)(C)N1C(=O)[C@H]2[C@H]3[C@H](O)C=CC(=O)[C@@H]3CC[C@H]2C1=O`
Marked response: NO

Exam item: `O=c1n(-c2ccccc2)c(=O)n2n1CC[C@@H]1C(=NOCc3ccccc3)[C@H]3O[C@H]3[C@@H](O)[C@@H]12` , same question.
Marked response: NO

Exam item: How about `COC(=O)[C@@H]1CC[C@H](C)[C@@H](c2ccc(C)cc2)N1C(=O)c1ccc(C=NO[C@@H]2O[C@H](COC(C)=O)[C@@H](OC(C)=O)[C@H](OC(C)=O)[C@H]2OC(C)=O)cc1` ?
Marked response: YES

Exam item: Do the same for `CC(CCN1CCCCc2nc(C)c(C)cc21)=NOC[C@@H](C)[C@H](OCc1ccccc1)C(C)C` please
Marked response: NO

Exam item: // next record `CCCNC(=O)OC[C@H]1O[C@H](CCON=C(C)C)C=C[C@@H]1Oc1ccc(OC)cc1`
Marked response: NO

Exam item: One more compound: `O=C1[C@H]2[C@H]3[C@H](O)[C@H](O)CC(=NOC[C@@H](O)COCc4ccco4)[C@H]3CC[C@H]2C(=O)N1c1ccc(F)cc1F`
Marked response: YES

###

Assignment: determine reported composite z-score for the given molecules.
test: small-molecule binders of probe aNOTCH3, primary screen, biochemical, small-molecule microarray, 635/667 nm fluorescence (AID 1120); details: higher = more signal;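 note: probe is a biotin-tagged antibody raised against NOTCH3 rather than NOTCH3 protein; score merges spot fluorescence near 667 nm with spot signal to noise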

                                     smiles  readout_value
0  CC(C)=NO[C@H](C)c1cn([C@H](CO)Cc2ccccc2)nn1        -0.0932
1  CC(C)=CCCC(C)=CCON=C1C[C@@H](O)[C@@H](O)[C@@H]2[C@@H]3C(=O)N(c4ccc(F)cc4F)C(=O)[C@@H]3CC[C@H]12          0.164
2  CC(=O)OC[C@H]1O[C@H](CC=NO[C@H](C)c2cn([C@H](CO)Cc3ccccc3)nn2)C=C[C@@H]1OC(C)=O          0.108

Now for a further molecule.
Exam item: Field request: composite z-score | item: `CO[C@H]1COC(=O)[C@@H](C)COC(=O)[C@H](COCc2ccccc2)NC(=O)CC=C[C@H]1C`
Marked response: -0.0077
